The compounds listed here are annotated with their IC50.
# target_entity: human TLR9 (Homo sapiens (Human), UniProt Q9NR96)
# Sequence (Q9NR96 26-1032): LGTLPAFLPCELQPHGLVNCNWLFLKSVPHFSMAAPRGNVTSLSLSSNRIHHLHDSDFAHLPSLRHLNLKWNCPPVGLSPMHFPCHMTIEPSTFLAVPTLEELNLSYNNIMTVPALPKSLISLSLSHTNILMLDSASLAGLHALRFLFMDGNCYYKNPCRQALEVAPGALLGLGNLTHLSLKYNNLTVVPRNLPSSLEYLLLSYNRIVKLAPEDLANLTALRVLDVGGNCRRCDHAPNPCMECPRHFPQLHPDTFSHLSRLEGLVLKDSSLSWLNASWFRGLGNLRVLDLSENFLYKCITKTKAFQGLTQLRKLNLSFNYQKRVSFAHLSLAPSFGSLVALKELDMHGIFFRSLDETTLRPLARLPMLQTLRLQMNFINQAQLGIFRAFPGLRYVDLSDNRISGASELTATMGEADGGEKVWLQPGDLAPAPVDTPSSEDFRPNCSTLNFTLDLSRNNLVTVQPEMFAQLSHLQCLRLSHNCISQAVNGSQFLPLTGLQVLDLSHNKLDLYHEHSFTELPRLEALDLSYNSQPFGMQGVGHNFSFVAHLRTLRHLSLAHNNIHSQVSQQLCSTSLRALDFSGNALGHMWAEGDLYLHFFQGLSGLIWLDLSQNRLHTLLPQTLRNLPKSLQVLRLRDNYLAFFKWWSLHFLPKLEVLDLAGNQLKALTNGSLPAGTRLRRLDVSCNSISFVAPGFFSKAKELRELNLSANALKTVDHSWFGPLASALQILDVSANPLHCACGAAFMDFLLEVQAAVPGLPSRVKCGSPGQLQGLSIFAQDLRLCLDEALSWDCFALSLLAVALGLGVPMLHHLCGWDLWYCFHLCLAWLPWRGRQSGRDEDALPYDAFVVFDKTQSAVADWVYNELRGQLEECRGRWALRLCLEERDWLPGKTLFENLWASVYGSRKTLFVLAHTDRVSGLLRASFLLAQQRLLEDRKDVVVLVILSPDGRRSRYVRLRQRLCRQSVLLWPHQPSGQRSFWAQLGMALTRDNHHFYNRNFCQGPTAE
# method_notes: TLR9 inhibition reporter assay (HEK-Blue cells, SEAP reporter, ODN2006 stimulation);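 also: compounds tested over 0.05 nM to 50 µM, 22 h incubation, inhibition taken as SEAP signal drop from agonist plus DMSO wells toward a known inhibitor control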
# condition_set: read-out: TLR9 IC50, HEK-Blue cells overexpressing human TLR9, ODN2006 5 nM

Consider the reported IC50 for these compounds:
Cc1cc(-c2[nH]c3ccc(C4CCN(C)CC4)cc3c2C(C)C)cc(C)n1 [Example 429]	484 nM
Cc1cc(-c2[nH]c3ccc(C4CCN(C(=O)CC(=O)Nc5nccs5)CC4)cc3c2C(C)C)cc(C)n1 [Example 142]	> 50000 nM
Cc1cc(-c2[nH]c3ccc(C4CCN(C(=O)Cn5ncnn5)CC4)cc3c2C(C)C)cc(C)n1 [Example 155]	26000 nM
Cc1cc(-c2[nH]c3ccc(C4CCN(CC5CN(Cc6ccccc6)CCO5)CC4)cc3c2C(C)C)cc(C)n1 (stereo not shown) [Example 320]	192 nM
Cc1cc(-c2[nH]c3ccc(C4CCN(C)CC4)cc3c2C(C)C)c(C)cn1 [Example 636]	1370 nM
Cc1cc(-c2[nH]c3ccc(C4CCN(CC(=O)N5CCCC(F)(F)C5)CC4)cc3c2C(C)C)cc(C)n1 [Example 285]	423 nM
Cc1cc(-c2[nH]c3ccc(C4CCN(C(=O)C(C)C)CC4)cc3c2C(C)C)cc(C)n1 [Example 202]	39900 nM
Cc1cc(-c2[nH]c3ccc(C4CCN(CCC(N)=O)CC4)cc3c2C(C)C)cc(C)n1 [Example 314]	147 nM
CCc1c(-c2cc(C)nc(C)c2)[nH]c2ccc(C3CCNCC3)cc12 [Example 2]	248 nM
CCc1c(-c2ccnc(C)c2)[nH]c2ccc(C3CCN(C)CC3)cc12 [Example 670]	663 nM

input: Can you share its IC50? I mean this compound: Cc1cc(-c2[nH]c3ccc(C4CCN(CCCO)CC4)cc3c2C(C)C)cc(C)n1 [Example 311]
output: 270 nM
